Just for reference, ChEMBL document CHEMBL2034941 is where these values come from.

test system: Staphylococcus aureus; assay: Antimicrobial activity against Staphylococcus aureus harboring ANT(4')-1 enzyme; assay type: functional

Molecular string	MIC
NCC[C@H](O)C(=O)N[C@@H]1C[C@H](N)[C@@H](O[C@H]2O[C@H](CO)[C@@H](O)[C@H](O)[C@H]2N)[C@H](O[C@@H]2O[C@H](CO)[C@@H](O[C@H]3O[C@@H](CN)[C@@H](O)[C@H](O)[C@H]3N)[C@H]2O)[C@H]1O	> 64 µg/mL
NC[C@H]1CC[C@@H](N)[C@@H](O[C@H]2[C@@H](O)[C@H](O[C@@H]3[C@@H](O)[C@H](N)C[C@H](N)[C@H]3O[C@H]3O[C@H](CO)CC[C@H]3N)O[C@@H]2CO)O1	4 µg/mL
NC[C@H]1O[C@H](O[C@H]2[C@H](O[C@@H]3O[C@H](CO)[C@@H](O)[C@H]3O)[C@@H](O)[C@H](N)C[C@@H]2N)[C@H](N)[C@@H](O)[C@@H]1O	> 64 µg/mL
NC[C@@H]1O[C@H](O[C@H]2[C@@H](O)[C@H](O[C@@H]3[C@@H](O)[C@H](N)C[C@H](N)[C@H]3O[C@H]3O[C@H](CN)[C@@H](O)[C@H](O)[C@H]3N)O[C@@H]2CO)[C@H](N)[C@@H](O)[C@@H]1O	> 64 µg/mL

----------
test system: Staphylococcus aureus; assay: Antimicrobial activity against Staphylococcus aureus harboring APH(2'''') and AAC(6') enzymes; type: functional
Reported MIC values are given for each entry in this list.
Measured endpoint: MIC

Molecular string	Reported measurement
NC[C@@H]1O[C@H](O[C@H]2[C@@H](O)[C@H](O[C@@H]3[C@@H](O)[C@H](N)C[C@H](N)[C@H]3O[C@H]3O[C@H](CN)[C@@H](O)[C@H](O)[C@H]3N)O[C@@H]2CO)[C@H](N)[C@@H](O)[C@@H]1O	> 64 mg/L
NC[C@@H]1O[C@H](O[C@H]2[C@@H](O)[C@H](O[C@@H]3[C@@H](O)[C@H](N)C[C@H](N)[C@H]3O[C@H]3O[C@H](CO)[C@@H](O)[C@H](O)[C@H]3N)O[C@@H]2CO)[C@H](N)[C@@H](O)[C@@H]1O	> 64 mg/L
NC[C@H]1O[C@H](O[C@H]2[C@H](O[C@@H]3O[C@H](CO)[C@@H](O)[C@H]3O)[C@@H](O)[C@H](N)C[C@@H]2N)[C@H](N)[C@@H](O)[C@@H]1O	> 64 mg/L
CN[C@@H]1[C@@H](O)[C@@H](O[C@@H]2[C@@H](O)[C@H](O[C@H]3O[C@H]([C@@H](C)NC)CC[C@H]3N)[C@@H](N)C[C@H]2N)OC[C@]1(C)O	> 64 mg/L

----------
system: Staphylococcus aureus; assay: Antimicrobial activity against Staphylococcus aureus harboring APH(2'''') and AAC(6') enzymes; format: functional
Measured endpoint: MIC (µg/mL)

Molecular string	Reported measurement
NCC[C@H](O)C(=O)N[C@@H]1C[C@H](N)[C@@H](O[C@H]2O[C@H](CO)CC[C@H]2N)[C@H](O[C@@H]2O[C@H](CO)[C@@H](O[C@H]3O[C@@H](CN)CC[C@H]3N)[C@H]2O)[C@H]1O	16
NCC[C@H](O)C(=O)N[C@@H]1C[C@H](N)[C@@H](O[C@H]2O[C@H](CN)CC[C@H]2N)[C@H](O[C@@H]2O[C@H](CO)[C@@H](O[C@H]3O[C@@H](CN)CC[C@H]3N)[C@H]2O)[C@H]1O	2
